This collection of values is drawn from PubChem BioAssay (EPA / NIEHS).

Read-out: E-selectin (Homo sapiens) (UniProt P16581)
Sequence (P16581 whole entry, looked up): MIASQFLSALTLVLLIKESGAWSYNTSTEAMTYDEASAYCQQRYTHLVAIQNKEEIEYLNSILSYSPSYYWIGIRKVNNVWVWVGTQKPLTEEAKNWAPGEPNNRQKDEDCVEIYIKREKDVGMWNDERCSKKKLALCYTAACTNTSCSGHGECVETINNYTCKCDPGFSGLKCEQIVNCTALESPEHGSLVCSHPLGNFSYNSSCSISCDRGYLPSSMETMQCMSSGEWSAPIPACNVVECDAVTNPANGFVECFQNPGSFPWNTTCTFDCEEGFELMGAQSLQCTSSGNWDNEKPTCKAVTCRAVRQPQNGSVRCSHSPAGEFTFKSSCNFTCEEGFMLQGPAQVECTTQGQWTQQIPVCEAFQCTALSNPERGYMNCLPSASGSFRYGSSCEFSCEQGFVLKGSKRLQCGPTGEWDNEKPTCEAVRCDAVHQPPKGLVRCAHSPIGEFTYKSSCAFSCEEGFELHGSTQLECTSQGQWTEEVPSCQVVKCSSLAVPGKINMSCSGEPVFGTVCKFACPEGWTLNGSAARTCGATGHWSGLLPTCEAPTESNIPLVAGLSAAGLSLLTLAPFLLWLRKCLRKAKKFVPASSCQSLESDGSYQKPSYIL
Assay: BSK_LPS_Eselectin: BioMAP Diversity Plus: LPS Assay for Eselectin Biomarker Activity (AID 2283077)
Conditions: primary human HUVEC with PBMC; actives raise or lower the signal
Activity calls are given as the source filed them. Rule for the calls: active = hit-call score of the fitted dose curve at least 0.9, where 1 is the maximum; inactive = score below 0.9.
Labels: TRUE for active, FALSE for inactive

[
  {
    "compound": "Cc1ccc(OP(=O)(Oc2ccc(C)cc2)Oc2ccc(C)cc2)cc1 (tested in a mixture with another compound)",
    "classification": "FALSE"
  },
  {
    "compound": "CC(C)CCCCCCCOP(=O)(Oc1ccccc1)Oc1ccccc1",
    "classification": "TRUE"
  },
  {
    "compound": "c1ccc(Nc2ccc3ccccc3c2)cc1",
    "classification": "FALSE"
  },
  {
    "compound": "N#CCCCCC#N",
    "classification": "FALSE"
  },
  {
    "compound": "C=CCN(CC=C)C(=O)C(Cl)Cl",
    "classification": "FALSE"
  },
  {
    "compound": "COCC(=O)N(c1c(C)cccc1C)N1CCOC1=O",
    "classification": "FALSE"
  },
  {
    "compound": "O=c1c2ccccc2c(=O)c2c1cc(Cl)c1[nH]c3c([nH]c12)c(Cl)cc1c(=O)c2ccccc2c(=O)c13",
    "classification": "FALSE"
  },
  {
    "compound": "CCCCCCCCCCCC#N",
    "classification": "TRUE"
  },
  {
    "compound": "CC(C)CCCCCCCOC(=O)c1ccccc1C(=O)OCCCCCCCC(C)C",
    "classification": "FALSE"
  },
  {
    "compound": "O=C1C(Cl)=C(Cl)C(=O)C(Cl)=C1Cl",
    "classification": "TRUE"
  },
  {
    "compound": "CC(C)(C)C(O)C(Oc1ccc(-c2ccccc2)cc1)n1cncn1 (configuration not stated)",
    "classification": "FALSE"
  },
  {
    "compound": "O=P1(NCCCl)OCCCN1CCCl (configuration not stated)",
    "classification": "FALSE"
  },
  {
    "compound": "CC(C)(C)C(=O)CCl",
    "classification": "FALSE"
  },
  {
    "compound": "CC1(C)[C@H](C(=O)O[C@H](C#N)c2cccc(Oc3ccccc3)c2)[C@@H]1C=C(Br)Br",
    "classification": "FALSE"
  },
  {
    "compound": "CCCC[N+](CCCC)(CCCC)CCCC",
    "classification": "FALSE"
  },
  {
    "compound": "COC(C)(C)CCC[C@H](C)C/C=C/C(C)=C/C(=O)OC(C)C",
    "classification": "TRUE"
  },
  {
    "compound": "CCc1cc(C)cc(CC)c1-c1c(OC(=O)C(C)(C)C)n2n(c1=O)CCOCC2",
    "classification": "FALSE"
  }
]
